// values below are reported viability, T/C
Test system: 276233-004-R-J1-PDC complex spheroid viability;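 further: spheroids exposed to drugs for seven days; 100% = DMSO vehicle control viability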
Experimental protocol: Anticancer human tumor 276233-004-R-J1-PDC patient-derived colon adenocarcinoma cell line growth inhibition [GQUAD]
Condition: second compound 0.0316 µM; first compound 0.1 µM; hits give low values

Molecule	viability, T/C / %
CC(C)(O)C1CCC(Nc2ccc3ncc(-c4cccc(C(F)(F)F)c4)n3n2)CC1 (stereo unspecified) + Cc1[nH]c2ccc(F)cc2c1-c1nc2c3cccnc3c3ncccc3c2[nH]1	68.9
O=C(NO)c1cnc(N2CCN(S(=O)(=O)c3ccc4ccccc4c3)CC2)nc1 + Cc1cnc(CNC(=O)c2c(=O)c3ccc(N4CCCN(C)CC4)nc3n3c2sc2ccccc23)cn1	86.2
O=c1[nH]cc(F)c(=O)[nH]1 + Cc1[nH]c2ccc(F)cc2c1-c1nc2c3cccnc3c3ncccc3c2[nH]1	85.6
CC1COCCN1c1cc(C2(S(C)(=N)=O)CC2)nc(-c2ccnc3[nH]ccc23)n1 (stereo unspecified) + CN(C)c1ccc(Nc2c3ccc(NC(=O)CCN4CCCC4)cc3nc3cc(NC(=O)CCN4CCCC4)ccc23)cc1	91
C=CC(=O)N1CCN(c2nc(=O)n(-c3c(C)ccnc3C(C)C)c3nc(-c4c(O)cccc4F)c(F)cc23)C(C)C1 (stereo unspecified) + Cc1[nH]c2ccc(F)cc2c1-c1nc2c3cccnc3c3ncccc3c2[nH]1	95.5
C#Cc1c(F)ccc2cc(O)cc(-c3ncc4c(N5CC6CCC(C5)N6)nc(OCC56CCCN5CC(F)C6)nc4c3F)c12 (stereo unspecified) + CN(C)c1ccc(Nc2c3ccc(NC(=O)CCN4CCCC4)cc3nc3cc(NC(=O)CCN4CCCC4)ccc23)cc1	79
